Source of measurements: patent US10183021B2

biological target: soluble guanylate cyclase (sGC) (Homo sapiens (Human), UniProt Q02108+Q02153); assay: sGC-HEK-cGMP assay, new protocol with DETA-NONOate, LC/MS detection (Example 2C); type: cell-based; conditions: read-out: Absolute EC50 (uM) - binned
Sequence (Q02153 whole entry): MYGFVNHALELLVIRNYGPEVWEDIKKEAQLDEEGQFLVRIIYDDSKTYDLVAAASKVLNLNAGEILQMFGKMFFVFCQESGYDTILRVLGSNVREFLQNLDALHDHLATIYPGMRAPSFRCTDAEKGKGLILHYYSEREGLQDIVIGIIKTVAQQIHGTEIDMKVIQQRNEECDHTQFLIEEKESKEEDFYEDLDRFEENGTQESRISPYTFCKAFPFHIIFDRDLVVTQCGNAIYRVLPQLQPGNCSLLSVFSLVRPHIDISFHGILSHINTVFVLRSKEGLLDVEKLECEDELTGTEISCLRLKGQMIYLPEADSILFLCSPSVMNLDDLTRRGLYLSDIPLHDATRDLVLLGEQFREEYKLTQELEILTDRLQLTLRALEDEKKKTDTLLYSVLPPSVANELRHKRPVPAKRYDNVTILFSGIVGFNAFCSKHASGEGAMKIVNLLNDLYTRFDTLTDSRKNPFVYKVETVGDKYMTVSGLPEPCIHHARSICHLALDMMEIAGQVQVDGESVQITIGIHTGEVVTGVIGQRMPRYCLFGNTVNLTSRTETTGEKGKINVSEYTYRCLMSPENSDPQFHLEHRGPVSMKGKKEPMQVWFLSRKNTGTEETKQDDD
Sequence (Q02108 whole entry): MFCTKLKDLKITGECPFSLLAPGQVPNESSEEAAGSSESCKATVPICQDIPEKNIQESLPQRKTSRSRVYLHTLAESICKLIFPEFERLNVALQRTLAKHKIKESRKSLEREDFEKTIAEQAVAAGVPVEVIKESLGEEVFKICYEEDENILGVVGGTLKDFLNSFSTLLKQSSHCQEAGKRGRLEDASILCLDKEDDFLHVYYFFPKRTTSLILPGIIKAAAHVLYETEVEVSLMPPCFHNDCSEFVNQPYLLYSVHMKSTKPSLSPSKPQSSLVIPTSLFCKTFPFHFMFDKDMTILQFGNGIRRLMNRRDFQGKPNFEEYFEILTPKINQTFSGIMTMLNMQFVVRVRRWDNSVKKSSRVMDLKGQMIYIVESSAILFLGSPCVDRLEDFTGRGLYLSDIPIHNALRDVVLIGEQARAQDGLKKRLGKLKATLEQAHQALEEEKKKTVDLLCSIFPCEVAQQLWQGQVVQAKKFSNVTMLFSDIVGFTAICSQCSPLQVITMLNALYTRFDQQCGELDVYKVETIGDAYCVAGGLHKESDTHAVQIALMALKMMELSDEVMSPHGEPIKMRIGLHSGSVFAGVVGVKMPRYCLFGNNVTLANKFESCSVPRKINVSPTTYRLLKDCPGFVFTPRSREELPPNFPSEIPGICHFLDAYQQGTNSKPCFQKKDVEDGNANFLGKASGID
quantity-kind: EC50

[
  {
    "molecule": "O=C1CCC(C(F)(F)F)N1c1nc(-c2cc(-c3ccon3)n(Cc3ccccc3F)n2)ncc1F (stereo not shown) [Compound I-501]",
    "EC50": "> 1 µM"
  },
  {
    "molecule": "NC(=O)[C@@](O)(CNc1nc(-c2cc(-c3ccon3)n(Cc3ccccc3F)n2)ncc1F)C(F)(F)F [Compound I-530]",
    "EC50": "0.101 to 1 µM"
  },
  {
    "molecule": "NCC(=O)Nc1ccnc(-c2cc(-c3ccon3)n(Cc3ccccc3F)n2)n1 [Compound I-520]",
    "EC50": "0.101 to 1 µM"
  }
]

Pending molecule:
Recorded EC50 for O=C(CS(=O)(=O)c1ccccc1)Nc1ccnc(-c2cc(-c3ccon3)n(Cc3ccccc3F)n2)n1 [Compound I-592] with soluble guanylate cyclase (sGC) (Homo sapiens (Human), UniProt Q02108+Q02153), please?
> 1 µM
